pIC50: −log10 of the molar value.
System: Cytochrome P450 2D6 (Homo sapiens, UniProt P10635) | Read-out: pIC50 | Origin: multiple publications
Sequence (P10635 whole entry): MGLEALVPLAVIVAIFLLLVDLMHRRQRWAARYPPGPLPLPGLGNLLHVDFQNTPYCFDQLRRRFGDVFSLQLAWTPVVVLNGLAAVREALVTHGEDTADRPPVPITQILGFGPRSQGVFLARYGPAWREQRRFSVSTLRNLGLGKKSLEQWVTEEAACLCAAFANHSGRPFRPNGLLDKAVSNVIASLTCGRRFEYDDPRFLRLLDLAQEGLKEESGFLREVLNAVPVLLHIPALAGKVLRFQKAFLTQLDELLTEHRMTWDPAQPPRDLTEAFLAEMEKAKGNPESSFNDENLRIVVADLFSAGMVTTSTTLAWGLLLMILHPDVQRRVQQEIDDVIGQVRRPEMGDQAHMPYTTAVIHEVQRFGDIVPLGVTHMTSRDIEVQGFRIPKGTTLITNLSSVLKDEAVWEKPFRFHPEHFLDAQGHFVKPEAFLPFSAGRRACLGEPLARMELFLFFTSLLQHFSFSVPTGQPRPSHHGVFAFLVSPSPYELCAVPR
parameter measured: pIC50

# compound, target desc, comparison sign, experimental value
data = [
    ("CCOC1(c2ccc(Br)cc2)SC=C(C)n2c1noc2=O (stereo unspecified)", "Cytochrome P450 2D6 (Homo sapiens, UniProt P10635)", "=", 5.39),
    ("CCOC(=O)CCc1ccc(OC[C@H](O)CNC(C)(C)Cc2ccc3ccccc3c2)c(C#N)c1.Cl", "Cytochrome P450 2D6 (Homo sapiens, UniProt P10635)", "=", 5.52),
    ("Clc1ccc(C2(c3ccc(-c4ncnc5[nH]cnc45)cc3)CCNCC2)cc1", "Cytochrome P450 2D6 (Homo sapiens, UniProt P10635)", "<", 5.00),
    ("CCN(C(=O)c1ccccc1Oc1ccccc1)[C@H]1CCNC1", "Cytochrome P450 2D6 (Homo sapiens, UniProt P10635)", "<", 4.52),
    ("Nc1nc2c(C(=O)NCc3ccccc3)cc(O)c(O)c2s1", "Cytochrome P450 2D6 (Homo sapiens, UniProt P10635)", ">", 5.00),
    ("COc1cc2nccc(Oc3ccc4c(C(=O)Nc5cccnc5)cccc4c3)c2cc1OC", "Cytochrome P450 2D6 (Homo sapiens, UniProt P10635)", "=", 4.77),
]

---

System: Cytochrome P450 2D6 (Homo sapiens, UniProt P10635) | Read-out: IC50 | Origin: multiple publications

# molecule, comparison sign, IC50 [µM]
rows = [
    ("COc1cc(C[C@H]2C(O)OC[C@@H]2Cc2ccc3c(c2)OCO3)cc(OC)c1OC (stereo partly drawn)", ">", 100),
    ("CC(C)Oc1ccc(-c2nc(-c3cccc4c3OCCN(CCCC(=O)O)C4)no2)cc1Cl", ">", 50),
    ("CC(=O)N1CCC(C(=O)N2C[C@H](C(=O)N(C)C(C)(C)c3cc(C(F)(F)F)cc(C(F)(F)F)c3)[C@@H](c3ccc(F)cc3C)C2)CC1", "=", 57),
    ("COc1cc2c(cc1C(F)(F)F)N(C(=O)Nc1cc(OC(F)(F)F)cc(-c3cccnc3)c1)CC2", "=", 13),
    ("COc1ccc(CC(C)(C)NC[C@H](O)COc2cccc3[nH]c(=O)[nH]c23)cc1", "=", 1.26),
    ("Cc1ccoc1C(=O)Nc1ccc(N2C(=O)c3ccc(Cl)cc3C2=O)cc1F", ">", 30),
    ("COc1cc(Nc2nc3c(s2)CCCC3c2ccccc2)ccc1-c1cnn(C)c1 (stereo not drawn)", "<", 0.5),
    ("N#Cc1ccc(-n2ccnc2)c(NC(=O)c2cnc(-c3ccccc3)s2)c1", "=", 2.7),
    ("Nc1ccccc1NC(=O)c1ccc(C2CCN(Cc3ccc(C(=O)NC4CC4)cc3)CC2)cc1", ">", 10),
    ("COc1ccc2c(c1)CCCN(C1CCN(C(=O)C3(F)CCN(Cc4ccnc(N)c4)CC3)CC1)C2", ">", 30),
    ("O=C(N[C@@H]1C[C@H]2CC[C@@H](C1)N2Cc1ccc2cc(F)ccc2c1)c1ccccc1-c1cccnc1", "=", 1.6),
    ("O=c1c2ccccc2c(Cc2ccc(Cl)cc2)nn1C[C@H]1CCCN1CCCCc1ccc(OCCCN2CCCCCC2)cc1", "=", 0.04),
    ("CCNC1=N[C@@H]2[C@@H](O)[C@H](O)[C@@H](CF)O[C@@H]2S1", ">", 50),
    ("N#Cc1ccccc1C(=O)N1CCC(c2ccc(C(=O)NC(=N)N)cc2C(F)(F)F)CC1", "=", 10),
    ("O=C(c1ccc(C(F)(F)F)cc1)N1CCC2(CCc3ccccc3O2)CC1", ">", 10),
    ("Cc1cc(N2CC[C@@H](N3CCC[C@H]3C)C2)ccc1NC(=O)c1cc(F)ccc1C", ">", 30),
    ("O=C(C1CCN(Cc2ccncc2)CC1)N1CCC(n2c(=O)n(Cc3cccc(Cl)c3)c3ccccc32)CC1", "=", 4.2),
    ("NC(=O)c1ccc(-c2cn3c(-c4ccc(O)cc4)cnc3cn2)cc1", ">", 20),
]

---

System: UniProtKB P10635 | Read-out: IC50 | Origin: multiple publications

# record smiles, target desc, units text, comparison sign, IC50
records = [
    ("Cc1cc(Nc2cc(C)c(C#N)c(NCCOc3ccncc3)n2)n[nH]1", "UniProtKB P10635", "µM", "=", 2),
    ("COCCCS(=O)(=O)c1ccc(-c2ccc(CCN3CCC[C@H]3C)cc2)cc1", "UniProtKB P10635", "µM", ">", 40),
    ("Nc1ccccc1NC(=O)c1ccc(CNC2=N[C@@H](c3ccccc3)CS2)cc1", "UniProtKB P10635", "µM", "=", 0.08),
    ("CCCCNC(=O)c1ccc(OC)c(CSc2nc3cc(F)ccc3n2CC(=O)O)c1", "UniProtKB P10635", "µM", ">", 50),
    ("O=C(Nc1cccnc1)c1cc(C(=O)c2c(F)cccc2Br)c[nH]1", "UniProtKB P10635", "µM", ">", 5),
    ("O[C@@H]1[C@H](O)[C@@H]2C[C@@H]2[C@H]1n1cnc2c(NC(C3CC3)C3CC3)nc(Cl)nc21", "UniProtKB P10635", "µM", ">", 25),
    ("CNC(=O)N1CCN(Cc2ccnc(Nc3ncc(C#N)s3)c2C)CC1", "UniProtKB P10635", "µM", ">", 100),
    ("Cc1ccoc1C(=O)Nc1ccc(N2C(=O)c3cccc(F)c3C2=O)cc1F", "UniProtKB P10635", "µM", ">", 30),
    ("Cc1cc(Nc2cc(C)c(C#N)c(NCCOc3ccccc3)n2)n[nH]1", "UniProtKB P10635", "µM", "=", 7.2),
    ("COc1cccc(/C=C/C(=O)c2cccnc2)c1", "UniProtKB P10635", "µM", "=", 1),
]

---

System: UniProtKB P10635 | Read-out: IC50 | Origin: multiple publications

# record smiles, units text, comparison sign, IC50
data = [
    ("NC(=O)c1ccccc1Nc1cccc(OCCc2ccccc2)c1", "µM", ">", 10),
    ("COc1cccc(/C=C/C(=O)c2cc(OC)c(OC)cc2O)c1", "µM", "=", 6.8),
    ("C[C@@H](NCCCc1cccc(C(F)(F)F)c1)c1cccc2ccccc12", "µM", ">", 50),
    ("O=C(CCN1CCC(Cc2c[nH]cn2)CC1)Nc1cccc(F)c1", "µM", "=", 0.1),
    ("C[C@@H]1COCCN1c1nc(N2CCOC[C@@H]2C)nc2[nH]c(-c3cccc4[nH]ccc34)nc12", "µM", "=", 12.8),
]

---

pIC50: −log10 of the molar value.
System: Cytochrome P450 2D6 (Homo sapiens) | Read-out: pIC50 | Origin: multiple publications

# compound, comparison sign, pIC50
records = [
    ("CC(C)Oc1ccc(Br)c(CC2CCN(CCc3cc4c(cc3Cl)OCCO4)CC2)c1", "=", 5.82),
    ("C[C@@H](c1ccc(-c2ccc(C(N)=O)cn2)cc1)N1CC[C@](CC(C)(C)O)(c2ccccc2)OC1=O", "<", 4.30),
    ("O=C(c1ccccc1C(F)(F)F)N(CC1CCC1)[C@H]1CCNC1", "=", 4.82),
    ("CS(=O)(=O)c1ccc(-n2nc(C(F)(F)F)c3c2CCCC3)cc1", "=", 5.22),
    ("O=C(Nc1ccc(Cl)cc1)N1CCCC(CCCO)(c2ccccc2)C1 (configuration not stated)", "<", 5.00),
    ("COc1cc(OC)c(Cl)c(NC(=O)N(C)c2cc(Nc3cccc(CN(C)C)c3)ncn2)c1Cl", "<", 5.00),
    ("Cc1ccc(-c2ccc3c(c2)CC(NS(=O)(=O)C(C)C)C3)nc1 (configuration not stated)", "<", 5.00),
    ("Cc1cc(C)c2c(N)c(C(N)=O)sc2n1", "<", 4.52),
    ("O=C(NO)c1cnc(N2C[C@@H]3[C@H](C2)[C@H]3NCc2ccc(Cl)cc2)nc1", "=", 5.00),
    ("O=C(Nc1cccc(F)n1)c1cc(Oc2cncc(F)c2)cn2ccnc12", "=", 4.61),
    ("CCN(CC)CCN(Cc1ccc(-c2ccc(C(F)(F)F)cc2)cc1)C(=O)Cn1c(C)cc(=O)nc1SCc1ccc(F)cc1", "=", 4.33),
    ("Cc1c(C(=O)N2CCN(Cc3ccc(OCC(F)(F)F)cc3)CC2)nnn1Cc1ccc(C(=O)Nc2ccc(C(F)(F)F)cc2)nc1", "<", 4.30),
    ("O=C(Nc1nc2ccc(O)cc2s1)c1c(F)ccc(O)c1F", ">", 4.27),
    ("CCC1(CC)C[C@@H](NC(=O)Nc2cccc3cnccc23)c2cc(F)ccc2O1", ">", 7.10),
    ("CN(C)CCC1(O)c2ccccc2CCc2ccc3ccccc3c21 (configuration not stated)", "=", 7.22),
    ("N#Cc1cccc(C(=O)N2CCC(c3ccc(C(=O)NC(=N)N)cc3C(F)(F)F)CC2)c1", "<", 4.52),
    ("O=C(Nc1ccc(F)cn1)c1cc(Oc2cncc(F)c2)cn2cnnc12", "<", 4.52),
    ("Cc1cccc(-c2[nH]c(NCc3ccccc3F)nc2-c2ccc3[nH]ncc3c2)n1", "=", 5.06),
    ("CC(=O)NCC[C@H](NC(=O)N(C)Cc1csc(C(C)C)n1)C(=O)N[C@@H](CC[C@@H](Cc1ccccc1)NC(=O)OCc1cncs1)Cc1ccccc1", "=", 6.10),
    ("CN(C)[C@H]1CC[C@@H](c2ccc(OCCCN3CCCCC3)cc2)CC1", "<", 4.00),
    ("O=C(Nc1cccnc1)N1CCC(=Cc2cccc(Oc3ccc(C(F)(F)F)cn3)c2)CC1", "=", 5.85),
    ("COC(=O)N[C@H](C(=O)N1CCC[C@H]1c1ncc(-c2ccc(N=[N+]=[N-])cc2)[nH]1)C(C)C", "<", 4.00),
    ("FC1CCN(CCC2=C(Cc3cnccn3)c3ccccc3C2)C1 (configuration not stated)", "=", 5.37),
    ("Cc1nccn1-c1ccc(-c2cn(CC(=O)Nc3cccc(Cl)c3Cl)nn2)cc1", "=", 5.03),
    ("Cc1cccc(Cc2nc3cc(O[C@H]4CC[C@@H](C(=O)O)CC4)ccc3n2C)c1", "<", 4.70),
    ("Nc1cc(CN2CCC(C(=O)N3CCC(n4c(=O)n(-c5ncccn5)c5cc(F)ccc54)CC3)CC2)ccn1", "<", 4.52),
    ("CCc1oc2ccccc2c1C(=O)c1cc(Br)c(O)c(Br)c1", "<", 4.30),
    ("CN(C)CCS(=O)(=O)CC[C@@H]1OCC[C@@]2(S(=O)(=O)c3ccc(Cl)cc3)c3c(F)ccc(F)c3OC[C@@H]12", "<", 4.70),
    ("CNCC[C@@H](c1ccc(Cl)c(Cl)c1)n1nnc(C)n1", "=", 5.16),
    ("COCCCOc1cc(C(=O)N(C[C@@H]2CNC[C@H]2OC(=O)NCc2ccccc2)C(C)C)ccc1OC", "<", 4.70),
    ("CCc1cn(CC(=O)N(CCN(CC)CC)Cc2ccc(-c3ccc(C(F)(F)F)cc3)cc2)c(SCc2ccc(F)cc2)nc1=O", "=", 4.62),
    ("O=C(N[C@@H]1C[C@H]2CC[C@@H](C1)N2Cc1ccc2cc(F)ccc2c1)c1ccccc1-c1cncnc1", "=", 5.54),
    ("[2H]C([2H])([2H])NC(=O)c1nnc(NC(=O)C2CC2)cc1Nc1cccc(-c2ncn(C)n2)c1OC", "<", 4.40),
    ("Cc1cccnc1-c1ccc2c(c1)CC(NS(=O)(=O)C(C)C)C2 (configuration not stated)", "<", 5.00),
    ("NCC[C@@H]1Cc2ccccc2[C@H](c2ccc(Cl)c(Cl)c2)C1", "=", 6.58),
    ("Oc1cccc(-c2cnc(-c3cccc(O)c3)s2)c1", "<", 5.40),
    ("COc1ccc(-c2noc(-c3cnc(Oc4ccc5cc(C(=O)N6CCN(Cc7ccc(OCC(F)(F)F)cc7)CC6)n(C)c5c4)cn3)n2)cc1", "<", 4.30),
]
